# Tested System: T1, IL-18 receptor (IL-18Rα/IL-18Rβ) overexpressed on HEK-Blue IL-18 cells (Homo sapiens (Human), UniProt Q13478 19-541; O95256 20-599)
# T1 sequence 1: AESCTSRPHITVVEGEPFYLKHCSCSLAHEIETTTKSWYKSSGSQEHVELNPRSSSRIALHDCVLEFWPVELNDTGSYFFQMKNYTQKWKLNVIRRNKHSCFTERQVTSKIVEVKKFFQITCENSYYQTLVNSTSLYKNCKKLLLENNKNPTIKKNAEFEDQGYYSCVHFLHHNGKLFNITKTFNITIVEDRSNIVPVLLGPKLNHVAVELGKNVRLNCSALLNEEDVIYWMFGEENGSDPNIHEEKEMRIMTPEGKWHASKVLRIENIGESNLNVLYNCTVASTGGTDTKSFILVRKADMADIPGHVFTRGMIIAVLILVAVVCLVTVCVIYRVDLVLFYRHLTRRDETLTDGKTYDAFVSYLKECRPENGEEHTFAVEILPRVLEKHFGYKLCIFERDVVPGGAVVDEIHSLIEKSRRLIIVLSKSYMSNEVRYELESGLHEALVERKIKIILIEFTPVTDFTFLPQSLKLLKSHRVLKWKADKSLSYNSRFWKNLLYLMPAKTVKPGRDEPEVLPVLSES
# T1 sequence 2: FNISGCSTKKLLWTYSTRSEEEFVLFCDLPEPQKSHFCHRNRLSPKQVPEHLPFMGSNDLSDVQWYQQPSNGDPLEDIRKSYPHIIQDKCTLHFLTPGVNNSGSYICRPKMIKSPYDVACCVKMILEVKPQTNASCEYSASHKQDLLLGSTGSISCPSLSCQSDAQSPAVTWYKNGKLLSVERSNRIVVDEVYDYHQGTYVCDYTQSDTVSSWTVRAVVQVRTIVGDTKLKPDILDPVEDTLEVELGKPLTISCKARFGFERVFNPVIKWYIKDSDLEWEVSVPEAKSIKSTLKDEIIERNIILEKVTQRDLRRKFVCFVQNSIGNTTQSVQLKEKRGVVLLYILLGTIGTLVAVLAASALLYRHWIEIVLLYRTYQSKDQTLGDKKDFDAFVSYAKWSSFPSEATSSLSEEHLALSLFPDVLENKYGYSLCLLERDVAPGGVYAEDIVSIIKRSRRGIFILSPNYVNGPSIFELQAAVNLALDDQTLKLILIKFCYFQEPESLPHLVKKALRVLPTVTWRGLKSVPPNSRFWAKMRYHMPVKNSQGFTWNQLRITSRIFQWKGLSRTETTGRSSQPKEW
# Assay Details: cell-based or functional assay
Metric: HEK-Blue IL-18: Fold over Background (fold)

>>> readout_number("DGL323 (bispecific antibody, V domains shown) V domain 1: QVQLQESGGGLVQPGGSLRLSCAASGFIFSNWYMRWVRQAPGEGLEWVSSINSGGDDTDYADSVKGRFTISRDNAKGTLYLQMHSLKPEDTALYYCERGADRVRGQGTQVTVSS V domain 2: QLQLVESGGGLVQAGGSLRLSCAASRSITFSHNVMGWYRQAPGKQRELVASIGSGGSTNYVDSVKGRATISRDNAKKTVYLQMNSLKPEDTAVYYCGVVVGVYRGSLGQGTQVTVSS")
1.8
>>> readout_number("DGL311 (bispecific antibody, V domains shown) V domain 1: QVQLVESGGGLVQAGGSLRLSCAASGRTFSSYTMGWFRQAPGKEREFVAAISWSAGRTYYADSVKGRFTISRDNAKNTVYLQMNSLKPEDTAVYFCAAEEAPDWAPIDCSGYGCLSLYDYWGQGTQVTVSS V domain 2: EVQLVESGGGVAQAGGSLRLSCAASITSFSLNTMGYYRQLPGKQRELVAVESSSGITNYADSVKGRFTISRDGAKNTVFLQMNSLTPEDTAVYYCGGKLFGRDFWGQGTQVTVSS")
3.4
>>> readout_number("DGL252 (bispecific antibody, V domains shown) V domain 1: QVQLVESGGGLVQAGGSLRLSCAASGRTFSKHAMGWFRQAPGKEREFVAAIDWSGGSTYYADSVKGRFTISRDNAKNTVYLQMDSLKPEDTAVYYCAADSYTDYAQLWLPELESEYDYWGQGTQVTVSS V domain 2: QVQLQESGGGLVQAGGSLRLSCAASASIFSRYAIGWYRQAPGKQRDLVAAITSGGTTNYADSVKGRFTISTDNAKNTVYLQMNSLKPEDTAVYSCAAGDSRANYYWGQGTQVTVSS")
1.3
